Assayed System: Furin (Homo sapiens) (UniProt P09958)
Sequence (P09958 whole entry, looked up): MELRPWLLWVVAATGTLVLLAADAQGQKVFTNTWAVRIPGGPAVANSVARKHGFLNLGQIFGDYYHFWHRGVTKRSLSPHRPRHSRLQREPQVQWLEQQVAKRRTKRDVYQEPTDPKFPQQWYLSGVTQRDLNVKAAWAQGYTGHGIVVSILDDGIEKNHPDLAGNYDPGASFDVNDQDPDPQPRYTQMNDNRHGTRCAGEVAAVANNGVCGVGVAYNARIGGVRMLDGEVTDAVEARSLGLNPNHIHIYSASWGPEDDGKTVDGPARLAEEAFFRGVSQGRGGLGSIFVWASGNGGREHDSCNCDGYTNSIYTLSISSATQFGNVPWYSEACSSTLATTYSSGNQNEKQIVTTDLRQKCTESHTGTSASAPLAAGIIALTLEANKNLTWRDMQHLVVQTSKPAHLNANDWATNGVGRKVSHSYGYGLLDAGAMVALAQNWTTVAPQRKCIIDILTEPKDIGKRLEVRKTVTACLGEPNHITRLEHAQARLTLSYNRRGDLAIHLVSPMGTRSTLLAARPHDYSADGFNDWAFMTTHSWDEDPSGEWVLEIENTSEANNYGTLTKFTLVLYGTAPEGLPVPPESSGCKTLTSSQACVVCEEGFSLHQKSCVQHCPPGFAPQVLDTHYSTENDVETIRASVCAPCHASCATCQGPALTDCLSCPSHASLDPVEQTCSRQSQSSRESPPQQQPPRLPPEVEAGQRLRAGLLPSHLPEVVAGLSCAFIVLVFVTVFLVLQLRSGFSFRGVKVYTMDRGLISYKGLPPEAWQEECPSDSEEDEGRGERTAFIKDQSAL
Assay: Furin counterscreen qHTS for Zika virus inhibitors (AID 1347149); also: nearly all actives have a fitted effect of over 70% in size
Condition Set: furin enzymatic counterscreen, fluorogenic substrate; series mostly up to 114 µM
Excerpt: Avindra Nath, Ph.D., National Institute of Neurological Disorders and Stroke (NINDS), Bethesda, MD Radhakrishnan Padmanabhan, Ph.D., Georgetown University (GU), Washington D.C. Zika Virus causes congenital defects, including microcephaly and is associated with Guillain-Barre syndrome, eningoencephalitis and myelitis in infected adult. […]
Inconclusive results are not listed. Calls of active or inactive are those of the source. Calls follow the shape of the dose curve; as a rule, active = well fitted inhibition curve with a large enough effect; inconclusive = small, poorly fitted or top-dose-only effect; inactive = no such curve, though single readings can be large or run the other way.
Respond using exactly one of the listed classes: active, inactive

Status in this test for Cc1noc(-c2ccc(-c3ccc(CC(=O)O)cc3)cc2)c1NC(=O)O[C@H](C)c1ccccc1Cl ?
active

For this molecule, state the assay outcome: O=C(O)c1cc(N(Cc2ccc(C3CCCCC3)cc2)C(=O)c2ccc(Oc3ccccc3)cc2)ccc1O
active

Record request — test call for O=C(Nc1ccc(-c2ccc(Cl)c(Cl)c2)cc1)C1=C(O)c2ccccc2S(=O)(=O)N1
inactive

Tell me the assay call for CCCCCc1ccc(/C=C/C(=O)Nc2cc(Cl)ccc2C(=O)O)cc1 please.
active

Lab log entry: CC(O)(C(=O)O)C1CCC2(C)C1CCC1(C)C2CCC2C3(C)CCC(O)C(C)(COC4OC(CO)C(O)C(O)C4O)C3CCC21C (stereo not given) — outcome as called in the assay?
inactive
